# assay: Dissociation constant was determined
# Type: physicochemical
quantityKind: pKa

Cc1c([N+](=O)[O-])c(C)n(C)c1C(=O)O	5.5
